Target: HER2 INS YVMA (Homo sapiens, UniProt P04626, INS775YVMA)
Construct: purchased DPF
Sequence (P04626 with tags, fused parts or gaps INS775YVMA): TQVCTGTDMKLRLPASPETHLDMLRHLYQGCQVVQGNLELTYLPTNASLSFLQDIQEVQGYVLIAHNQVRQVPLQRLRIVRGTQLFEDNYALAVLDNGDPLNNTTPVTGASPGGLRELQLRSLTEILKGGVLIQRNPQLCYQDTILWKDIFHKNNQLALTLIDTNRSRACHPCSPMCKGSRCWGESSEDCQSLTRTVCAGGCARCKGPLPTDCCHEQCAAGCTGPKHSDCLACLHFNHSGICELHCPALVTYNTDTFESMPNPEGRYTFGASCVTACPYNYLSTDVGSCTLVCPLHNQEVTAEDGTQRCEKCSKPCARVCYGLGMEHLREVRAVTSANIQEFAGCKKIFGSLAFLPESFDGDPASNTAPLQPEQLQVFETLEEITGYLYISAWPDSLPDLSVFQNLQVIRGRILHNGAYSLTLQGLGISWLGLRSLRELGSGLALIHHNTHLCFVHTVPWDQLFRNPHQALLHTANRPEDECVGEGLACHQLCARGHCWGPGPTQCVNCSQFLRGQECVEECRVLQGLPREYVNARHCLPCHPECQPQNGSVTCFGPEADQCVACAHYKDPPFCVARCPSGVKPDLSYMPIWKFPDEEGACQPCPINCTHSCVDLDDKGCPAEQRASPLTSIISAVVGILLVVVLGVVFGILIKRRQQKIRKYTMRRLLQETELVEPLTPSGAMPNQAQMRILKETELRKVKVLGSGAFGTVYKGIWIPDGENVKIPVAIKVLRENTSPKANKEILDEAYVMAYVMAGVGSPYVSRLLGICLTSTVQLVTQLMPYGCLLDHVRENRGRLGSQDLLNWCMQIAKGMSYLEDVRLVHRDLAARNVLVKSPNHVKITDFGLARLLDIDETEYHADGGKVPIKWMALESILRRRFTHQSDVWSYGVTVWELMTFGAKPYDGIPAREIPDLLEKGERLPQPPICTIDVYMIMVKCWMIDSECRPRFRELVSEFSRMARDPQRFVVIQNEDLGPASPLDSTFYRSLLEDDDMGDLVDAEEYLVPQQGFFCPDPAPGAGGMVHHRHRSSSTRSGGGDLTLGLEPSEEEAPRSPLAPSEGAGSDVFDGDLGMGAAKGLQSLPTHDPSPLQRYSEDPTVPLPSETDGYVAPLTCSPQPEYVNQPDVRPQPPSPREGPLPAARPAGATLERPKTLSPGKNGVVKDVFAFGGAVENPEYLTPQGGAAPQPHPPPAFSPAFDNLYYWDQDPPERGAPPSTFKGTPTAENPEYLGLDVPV
Assay: Lance Kinase Activity Assay, HER2 INS YVMA (Her2 Exon 20 INSYVMA Lance)
Type: biochemical
Test Readout: IC50 (nM)
Your answer is read as nM, so omit the unit and give the number.

| Compound | IC50 [nM] |
| --- | --- |
| C=CC(=O)Nc1cc(-c2c(-c3ccc(N4CCN(C)CC4)cc3)[nH]c3nccc(Cl)c23)ccc1C [drawing 711] | 5 |

Now look at this one.
Asked: What does the record list as IC50 for CCC(=O)Nc1cc(-c2c(-c3ccc(N4CCN(C)CC4)cc3)[nH]c3nccc(Cl)c23)ccc1C [reference compound] ?
Given back: 916

====

Target: HER2 INS YVMA (Homo sapiens, UniProt P04626, INS775YVMA)
Construct: purchased DPF
Test: Lance Kinase Activity Assay, HER2 INS YVMA (Her2 Exon 20 INSYVMA Lance)
Format: biochemical
Details: biochemical Lance assay
Test Readout: IC50

Completed entries (count: 3):
| Molecular String | Target Desc | IC50 |
| --- | --- | --- |
| C=CC(=O)Nc1cc(-c2c(-c3cncnc3)[nH]c3nccc(Cl)c23)ccc1C | HER2 INS YVMA (Homo sapiens, UniProt P04626, INS775YVMA) | 0.1 to 0.5 µM |
| C=CC(=O)Nc1cc(-c2c(-c3cccc(N4CCN(C(C)=O)CC4)c3)[nH]c3nccc(Cl)c23)ccc1C | HER2 INS YVMA (Homo sapiens, UniProt P04626, INS775YVMA) | 0.1 to 0.5 µM |
| C=CC(=O)Nc1cc(-c2c(-c3ccc(N4CCN(C)CC4)cc3OC)[nH]c3nccc(Cl)c23)ccc1C | HER2 INS YVMA (Homo sapiens, UniProt P04626, INS775YVMA) | 0.1 to 0.5 µM |

Asked: Notebook entry, HER2 INS YVMA (Homo sapiens, UniProt P04626, INS775YVMA) assay: IC50 of `C=CC(=O)N1CCOc2ccc(-c3c(-c4ccc(CN5CCN(C)CC5)cc4)[nH]c4nccc(Cl)c34)cc21` = ?
Given back: ≤ 0.1 µM

Asked: Please tell me: IC50 of `C=CC(=O)N1CCc2ccc(-c3c(-c4ccnc(N5CCN(C)CC5)c4)[nH]c4nccc(OCC)c34)cc21` , system HER2 INS YVMA (Homo sapiens, UniProt P04626, INS775YVMA)?
Given back: ≤ 0.1 µM

Asked: Short answer please: IC50, HER2 INS YVMA (Homo sapiens, UniProt P04626, INS775YVMA), entry `C=CC(=O)Nc1cc(-c2c(-c3ccc(C4CCN(C)CC4)cc3)[nH]c3ncc(C(=O)OC(C)C)cc23)cc(F)c1C`
Given back: ≤ 0.1 µM

Asked: Entry `C=CC(=O)N1CCCc2ccc(-c3c(-c4cccc(OCCN5CCCC5)c4)[nH]c4nccc(Cl)c34)cc21` , system HER2 INS YVMA (Homo sapiens, UniProt P04626, INS775YVMA): what IC50 was measured?
Given back: ≤ 0.1 µM

====

Biological target: HER2 INS YVMA (Homo sapiens, UniProt P04626, INS775YVMA)
Construct: purchased DPF
Assay: Lance Kinase Activity Assay, HER2 INS YVMA (Her2 Exon 20 INSYVMA Lance)
Type: biochemical
Details: biochemical Lance assay
Test Readout: IC50

Take a look at these entries with their results.
| Compound | Target Desc | Test Readout | Reported Result |
| --- | --- | --- | --- |
| C=CC(=O)Nc1cc(-c2c(-c3cccc(C(=O)NCCCN(C)Cc4ccccc4)c3)[nH]c3nccc(Cl)c23)ccc1C [Example 51] | HER2 INS YVMA (Homo sapiens, UniProt P04626, INS775YVMA) | IC50 | 0.1 to 0.5 µM |
| C=CC(=O)Nc1cc(-c2c(-c3ccc(C4CCNCC4)cc3)[nH]c3nccc(Cl)c23)ccc1C [Example 29] | HER2 INS YVMA (Homo sapiens, UniProt P04626, INS775YVMA) | IC50 | ≤ 0.1 µM |
| C=CC(=O)Nc1cc(-c2c(-c3ccc(N4CCN(C)CC4)cc3)[nH]c3ncc(C(=O)NCc4nc5ccccc5[nH]4)cc23)ccc1C [Example 125] | HER2 INS YVMA (Homo sapiens, UniProt P04626, INS775YVMA) | IC50 | 1 to 10 µM |
| C=CC(=O)N1CCc2ccc(-c3c(-c4ccc(CN5CCN(C)CC5)cc4)[nH]c4nccc(Cl)c34)cc21 [Example 60] | HER2 INS YVMA (Homo sapiens, UniProt P04626, INS775YVMA) | IC50 | ≤ 0.1 µM |

Asked: Lab request: please report IC50 under test system HER2 INS YVMA (Homo sapiens, UniProt P04626, INS775YVMA) for C=CC(=O)Nc1cc(-c2c(-c3cnc(N4CCOCC4)nc3)[nH]c3ncc(C(=O)OC(C)C)cc23)ccc1C [Example 173]
Given back: > 10 µM

====

Entries and their GI50
Molecular target: Her2 Exon 20 INSYVMA Ba/F3 (Homo sapiens, UniProt P04626, DUP772-775, cells depend on it)
Sequence (P04626 with tags, fused parts or gaps DUP772-775): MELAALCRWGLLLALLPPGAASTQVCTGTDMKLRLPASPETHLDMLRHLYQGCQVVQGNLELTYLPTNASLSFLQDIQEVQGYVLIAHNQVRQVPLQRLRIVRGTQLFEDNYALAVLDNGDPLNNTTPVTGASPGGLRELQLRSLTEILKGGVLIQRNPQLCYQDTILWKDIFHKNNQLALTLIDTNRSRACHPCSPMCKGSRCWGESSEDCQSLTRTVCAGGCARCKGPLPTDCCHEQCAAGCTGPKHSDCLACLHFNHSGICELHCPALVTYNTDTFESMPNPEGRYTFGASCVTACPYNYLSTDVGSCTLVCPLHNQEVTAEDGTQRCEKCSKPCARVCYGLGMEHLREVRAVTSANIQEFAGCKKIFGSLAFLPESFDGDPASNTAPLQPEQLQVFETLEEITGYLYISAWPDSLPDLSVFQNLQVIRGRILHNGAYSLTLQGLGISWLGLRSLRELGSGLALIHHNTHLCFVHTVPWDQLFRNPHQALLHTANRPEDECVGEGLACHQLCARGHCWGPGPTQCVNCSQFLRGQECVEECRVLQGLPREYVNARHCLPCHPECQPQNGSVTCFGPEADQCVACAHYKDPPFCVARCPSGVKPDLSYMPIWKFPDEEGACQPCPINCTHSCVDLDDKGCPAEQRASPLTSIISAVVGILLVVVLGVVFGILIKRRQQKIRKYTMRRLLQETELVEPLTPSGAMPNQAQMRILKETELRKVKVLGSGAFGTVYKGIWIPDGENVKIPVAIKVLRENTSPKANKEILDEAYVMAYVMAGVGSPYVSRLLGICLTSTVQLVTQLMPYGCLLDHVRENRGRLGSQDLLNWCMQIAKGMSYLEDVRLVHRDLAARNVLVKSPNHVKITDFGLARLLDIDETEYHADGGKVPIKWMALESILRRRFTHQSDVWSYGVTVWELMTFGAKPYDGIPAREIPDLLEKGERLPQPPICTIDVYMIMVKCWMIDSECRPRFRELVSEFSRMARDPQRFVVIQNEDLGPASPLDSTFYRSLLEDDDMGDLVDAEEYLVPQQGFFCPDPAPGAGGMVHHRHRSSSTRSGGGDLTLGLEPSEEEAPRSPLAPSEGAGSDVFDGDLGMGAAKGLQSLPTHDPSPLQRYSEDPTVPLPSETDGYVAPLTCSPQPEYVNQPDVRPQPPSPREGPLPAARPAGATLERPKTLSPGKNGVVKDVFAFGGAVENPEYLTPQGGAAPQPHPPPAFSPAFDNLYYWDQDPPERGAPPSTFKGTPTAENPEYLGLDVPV
Assay: Her2 Exon 20 INSYVMA Ba/F3 CellTiter-Glo
Format: cell-based
Details: CellTiter-Glo, 72 h, read-out: Her2 Exon 20 INSYVMA Ba/F3 CTG IC50

Worked set:
| Molecule | GI50 |
| --- | --- |
| C=CC(=O)Nc1cc(-c2c(-c3ccc(CN4CCN(C)CC4)cc3)[nH]c3nccc(Cl)c23)ccc1C [Example 1, 2,2,2-trifluoroacetate] | 100 to 500 nM |
| C=CC(=O)Nc1cc(-c2c(-c3ccc(N(C)CCN(C)C)cc3)[nH]c3ncc(C(=O)OC(C)C)c(C)c23)ccc1C [Example 204] | ≤ 100 nM |
| C=CC(=O)Nc1cc(-c2c(-c3ccc(N4CCN(C(C)C)CC4)cc3)[nH]c3ncc(C(=O)OC(C)C)cc23)ccc1C [Example 176] | 100 to 500 nM |
| C=CC(=O)Nc1cc(-c2c(-c3cccc(C(=O)N4CCN(C)CC4)c3)[nH]c3nccc(Cl)c23)ccc1C [Example 44, 2,2,2-trifluoroacetate] | 1000 to 10000 nM |
| C=CS(=O)(=O)Nc1cc(-c2c(-c3ccc(N4CCN(C)CC4)cc3)[nH]c3nccc(Cl)c23)ccc1C [Example 145, 2,2,2-trifluoroacetate] | 500 to 1000 nM |

Here is another molecule to look at.
Asked: Given the entry C=CC(=O)Nc1cc(-c2c(-c3ccc(CCN(C)C)cc3)[nH]c3nccc(Cl)c23)ccc1C [Example 4] , report its measured GI50.
Given back: 100 to 500 nM

====

Target: EGFR Exon 20 INSNPH Ba/F3 (Homo sapiens, UniProt P00533, DUP771-773, cells depend on it)
Sequence (P00533 with tags, fused parts or gaps DUP771-773): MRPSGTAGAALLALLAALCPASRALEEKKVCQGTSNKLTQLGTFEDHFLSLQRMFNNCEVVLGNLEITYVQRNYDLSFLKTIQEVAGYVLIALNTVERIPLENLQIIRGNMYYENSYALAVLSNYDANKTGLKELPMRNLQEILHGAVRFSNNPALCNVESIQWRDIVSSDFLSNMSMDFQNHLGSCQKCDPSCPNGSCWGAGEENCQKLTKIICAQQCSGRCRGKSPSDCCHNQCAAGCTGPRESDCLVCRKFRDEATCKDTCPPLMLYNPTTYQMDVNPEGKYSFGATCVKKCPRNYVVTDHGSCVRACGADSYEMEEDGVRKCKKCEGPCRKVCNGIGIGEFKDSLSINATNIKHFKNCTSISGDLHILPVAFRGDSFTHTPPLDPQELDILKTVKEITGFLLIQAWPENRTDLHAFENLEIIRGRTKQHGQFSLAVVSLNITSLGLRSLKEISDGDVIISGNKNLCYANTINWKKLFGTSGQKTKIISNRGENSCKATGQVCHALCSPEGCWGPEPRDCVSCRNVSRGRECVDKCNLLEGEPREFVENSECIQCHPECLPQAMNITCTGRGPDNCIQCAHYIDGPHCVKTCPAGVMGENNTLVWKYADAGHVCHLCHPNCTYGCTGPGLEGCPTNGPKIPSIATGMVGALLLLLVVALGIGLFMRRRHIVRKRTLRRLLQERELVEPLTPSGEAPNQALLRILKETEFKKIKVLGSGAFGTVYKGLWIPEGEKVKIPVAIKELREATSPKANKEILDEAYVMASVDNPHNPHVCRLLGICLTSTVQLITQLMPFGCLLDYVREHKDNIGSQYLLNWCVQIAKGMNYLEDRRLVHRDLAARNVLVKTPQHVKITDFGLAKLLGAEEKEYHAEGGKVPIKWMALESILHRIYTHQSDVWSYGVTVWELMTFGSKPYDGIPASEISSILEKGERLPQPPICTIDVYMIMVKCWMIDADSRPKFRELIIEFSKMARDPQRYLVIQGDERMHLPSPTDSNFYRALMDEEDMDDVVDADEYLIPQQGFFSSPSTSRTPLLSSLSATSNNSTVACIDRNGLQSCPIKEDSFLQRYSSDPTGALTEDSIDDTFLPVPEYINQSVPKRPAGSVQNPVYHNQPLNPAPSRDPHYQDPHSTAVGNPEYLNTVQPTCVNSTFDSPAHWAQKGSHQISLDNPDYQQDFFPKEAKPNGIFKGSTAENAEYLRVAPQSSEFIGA
Assay: EGFR Exon 20 INSNPH Ba/F3 CellTiter-Glo
Assay type: cell-based
Details: CellTiter-Glo, 72 h, read-out: EGFR Exon 20 INSNPH Ba/F3 CTG IC50
// GI50 lookup, one value per entry

Example cases with answers are listed next.
| Compound | Target Desc | GI50 |
| --- | --- | --- |
| C=CC(=O)Nc1cc(-c2c(-c3cccc(C(=O)NC4CCN(Cc5ccccc5)CC4)c3)[nH]c3nccc(Cl)c23)ccc1C | EGFR Exon 20 INSNPH Ba/F3 (Homo sapiens, UniProt P00533, DUP771-773, cells depend on it) | 100 to 500 nM |
| C=CC(=O)Nc1cc(-c2c(-c3ccc(OCCN(C)C)cc3)[nH]c3ncc(C(=O)OC(C)C)c(C)c23)ccc1C | EGFR Exon 20 INSNPH Ba/F3 (Homo sapiens, UniProt P00533, DUP771-773, cells depend on it) | ≤ 100 nM |
| C=CC(=O)Nc1cc(-c2c(-c3ccc(N4CCN(C)CC4)cc3)[nH]c3ncc(NC(C)=O)cc23)ccc1C | EGFR Exon 20 INSNPH Ba/F3 (Homo sapiens, UniProt P00533, DUP771-773, cells depend on it) | 1000 to 10000 nM |
| C=CC(=O)Nc1cc(-c2c(-c3cnc(N4CCOCC4)nc3)[nH]c3ncc(C(=O)OC(C)C)cc23)ccc1C | EGFR Exon 20 INSNPH Ba/F3 (Homo sapiens, UniProt P00533, DUP771-773, cells depend on it) | 1000 to 10000 nM |
| C=CC(=O)Nc1cc(-c2c(-c3ccc(N(C)CCN(C)C)cc3)[nH]c3ncc(C(=O)OC(C)C)cc23)ccc1C [Example 154, 2,2,2-trifluoroacetate] | EGFR Exon 20 INSNPH Ba/F3 (Homo sapiens, UniProt P00533, DUP771-773, cells depend on it) | 100 to 500 nM |
| C=CC(=O)N1CCCc2ccc(-c3c(-c4ccc(CN5CCN(C)CC5)nc4)[nH]c4nccc(Cl)c34)cc21 | EGFR Exon 20 INSNPH Ba/F3 (Homo sapiens, UniProt P00533, DUP771-773, cells depend on it) | 100 to 500 nM |

Proceed to the following item.
Asked: # get_value(readout='GI50', item= `C=CC(=O)Nc1cc(-c2c(-c3ccc(OCCCN4CCN(CC)CC4)cc3)[nH]c3nccc(Cl)c23)ccc1C` )
Given back: 100 to 500 nM
